- Test system: PXR:RXRa (NR concentration 270 nM, RXRa partner concentration 90 nM)
- testDescription: PBM binding z-score (relative to random genomic background probes); higher = stronger binding; sequences stand for … in GC…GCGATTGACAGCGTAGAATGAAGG
PBM binding z-score vs 1: at or above is MET, below is NOT MET.

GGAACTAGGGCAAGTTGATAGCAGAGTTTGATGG; NOT MET

Form field: PBM binding z-score at least 1? Entry: ATCTCTAGGGAACAAGTTCAGTGAAAGAGAGGAC MET

Form field: PBM binding z-score at least 1? Entry: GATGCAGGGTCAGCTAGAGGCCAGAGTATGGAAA MET

Form field: PBM binding z-score at least 1? Entry: CTAACTAGGTCAGAACAGGACAGTGAAGGATGAT NOT MET

Form field: PBM binding z-score at least 1? Entry: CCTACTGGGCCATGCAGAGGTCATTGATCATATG MET

Form field: PBM binding z-score at least 1? Entry: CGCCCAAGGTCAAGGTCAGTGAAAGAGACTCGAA MET

###

- Test system: RARa:RXR (NR concentration 270 nM, RXRa partner concentration 90 nM)
- testDescription: PBM binding z-score (relative to random genomic background probes); higher = stronger binding; sequences stand for … in GC…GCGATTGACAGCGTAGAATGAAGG
measurementName: PBM binding z-score
Reply with the value as a number alone.

Completed entries (count: 2):
TCTTGTGGATCAACAGGAGGTTAAGAAAGATCGA; 0.932
CGAACTAGGTCACGGACAGTGAATCTCCGCACGC; 3.61

Which PBM binding z-score is reported for this sequence? CCTATTAGTTGACCATATGGGCAACCGAAGCTCG 0.314

Which PBM binding z-score is reported for this sequence? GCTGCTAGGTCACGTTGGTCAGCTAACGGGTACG 2.81

Which PBM binding z-score is reported for this sequence? CGTCCAAGGTCAAAGGTCCGTGAAGAGATGACGG 5.96

###

- System: VDR:RXRa (NR concentration 270 nM, RXRa partner concentration 90 nM)
- testDescription: PBM binding z-score (relative to random genomic background probes); higher = stronger binding; sequences stand for … in GC…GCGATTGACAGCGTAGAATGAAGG
Here, each record is paired with measured PBM binding z-score data.
Reply with the value as a number alone.

CTAACTAGGTCATCCAGGACAGTGAATACATTGA; 4.72
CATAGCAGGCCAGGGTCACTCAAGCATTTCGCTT; 2.92
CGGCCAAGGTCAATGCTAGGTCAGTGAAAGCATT; 4.95
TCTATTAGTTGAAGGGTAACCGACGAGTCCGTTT; 1.2
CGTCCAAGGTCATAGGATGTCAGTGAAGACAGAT; 4.77
TCAGACAGGTTAAGGTAACTCAGGTACGCAGTCG; 1.53

Which PBM binding z-score is reported for this sequence? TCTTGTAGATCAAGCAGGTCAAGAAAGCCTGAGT 2.28

Which PBM binding z-score is reported for this sequence? AGAATGAGGTTATTAAGACCAGGGAATTGCGGTC 1.69

###

- System: PXR homodimer (NR concentration 270 nM)
- testDescription: PBM binding z-score (relative to random genomic background probes); higher = stronger binding; sequences stand for … in GC…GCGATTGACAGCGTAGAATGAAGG
Here, each record is paired with measured PBM binding z-score data.
Reply with the value as a number alone.

Completed entries (count: 3):
GCTTGTAGATCAAGGTTAAGAACGACTAAGCTAA; -0.0676
AGAACGAGGGCAATGAGCTGATAGCACGGGTGGC; 0.0255
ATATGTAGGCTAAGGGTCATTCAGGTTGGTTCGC; 1.76

Which PBM binding z-score is reported for this sequence? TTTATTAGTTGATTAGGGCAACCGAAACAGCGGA 0.839

Which PBM binding z-score is reported for this sequence? CGTCCAAGGGCAAGGTCAGTGAAAGAGACTCGAA -0.101

Which PBM binding z-score is reported for this sequence? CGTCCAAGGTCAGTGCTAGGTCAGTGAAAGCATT 0.647

Which PBM binding z-score is reported for this sequence? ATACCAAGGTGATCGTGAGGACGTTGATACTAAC 0.387
